Species: Cavia porcellus
Experiment Notes: Percent stimulation of [35S]GTP-gamma-S, binding by the compound (10 uM) in guinea pig caudate membranes for unblocked condition
Format: functional
Measured Quantity: Stimulation (%)
Lab book: enter the figure in %, no units written.

response.value for `C=CCN1[C@@H]2CC[C@H]1C[C@@H](N(c1ccc(C(=O)N(CC)CC)cc1)c1cccc(O)c1)C2` (field: Stimulation) = 79

response.value for `C=CCN1[C@@H]2CC[C@H]1C[C@@H](N(c1ccc(C(=O)N(CC)CC)cc1)c1cccc(OC)c1)C2` (field: Stimulation) = 46

response.value for `CCN(CC)C(=O)c1ccc(N(c2cccc(OC)c2)[C@H]2C[C@H]3CC[C@@H](C2)N3CC=C(C)C)cc1` (field: Stimulation) = 29

response.value for C/C=C\CN1C2CCC1CC(N(c1ccc(C(=O)N(CC)CC)cc1)c1cccc(OC)c1)C2 (centres undefined) (field: Stimulation) = 37
